molecular target: Intermediate conductance calcium-activated potassium channel protein 4 (Homo sapiens, UniProt O15554); test: Inhibition of IK channel (unknown origin)
Sequence (O15554 whole entry): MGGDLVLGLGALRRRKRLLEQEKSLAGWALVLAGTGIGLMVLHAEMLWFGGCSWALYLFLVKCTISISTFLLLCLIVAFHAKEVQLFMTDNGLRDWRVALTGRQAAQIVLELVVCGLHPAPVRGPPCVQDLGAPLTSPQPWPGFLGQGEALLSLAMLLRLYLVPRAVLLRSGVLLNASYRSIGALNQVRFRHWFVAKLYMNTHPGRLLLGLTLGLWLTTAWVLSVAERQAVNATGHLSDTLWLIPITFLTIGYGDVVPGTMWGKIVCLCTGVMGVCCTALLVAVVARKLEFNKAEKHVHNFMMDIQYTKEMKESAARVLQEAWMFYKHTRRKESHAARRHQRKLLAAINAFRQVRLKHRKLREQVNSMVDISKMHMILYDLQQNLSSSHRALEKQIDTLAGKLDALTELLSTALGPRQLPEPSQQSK
pIC50: −log10 of the molar value.
Readout type: pIC50

- O=P(c1ccccc1)(c1ccccc1)N(Cc1ccccn1)Cc1ccccn1: < 4.48
- O=P(NCc1ccccc1-c1cccnc1)(c1ccccc1)c1ccccc1: < 4.48
- COCCN(c1cccnc1)P(=O)(c1ccccc1)c1ccccc1: < 4.48
- CCCN(c1cncnc1)P(=O)(c1ccccc1)c1ccccc1: < 4.48
